- System: SGC-7901 (human gastric cancer cells)
- ASSAY_COMMENT: MTT cancer cell growth inhibition
- Type: cell-based
- ASSAY_CONDITIONS: MTT, 72 hours incubation, SGC-7901 cells; read-out: GI50 SGC-7901
Attribute: GI50
// units = nM; emit number, no label

Solved entries (count: 4):
C/C=C1\NC(=O)c2cc(SC)cc(n2)CNC(=O)C[C@@H](/C=C/CCSC(C)=O)OC(=O)[C@H](C)NC1=O [Compound 214]: 68
C/C=C1\NC(=O)c2cc(SC)cc(n2)CNC(=O)C[C@@H](/C=C/CCSC(C)=O)OC(=O)[C@H](C)NC1=O [Compound 184]: 11
C/C=C1\NC(=O)c2nc(cc(SC)n2)CNC(=O)C[C@@H](/C=C/CCSC(C)=O)OC(=O)[C@H](C(C)C)NC1=O: 38
C/C=C1\NC(=O)c2ccc(SC)c(n2)CNC(=O)C[C@@H](/C=C/CCSC(C)=O)OC(=O)[C@H](C(C)C)NC1=O: 97

Please find the next molecule below.
So what's the measured GI50 for this one? C/C=C1\NC(=O)c2ccc(SC)c(n2)CNC(=O)C[C@@H](/C=C/CCSC(C)=O)OC(=O)[C@H](C)NC1=O
48

---

- Tested on: PANC-1 (Pac-1, human pancreatic cancer cells)
- ASSAY_COMMENT: MTT cancer cell growth inhibition
- Format: cell-based
- ASSAY_CONDITIONS: Homo sapiens, PANC-1, 72 h, MTT, 72 hours incubation; read-out: GI50 PAN
Attribute: GI50
// units = nM; emit number, no label

C/C=C1\NC(=O)c2nc(F)cc(n2)CNC(=O)C[C@@H](/C=C/CCSC(C)=O)OC(=O)[C@H](C(C)C)NC1=O [Compound 96]: 40

So what's the measured GI50 for this one? C=C1NC(=O)c2ccc(F)c(n2)CNC(=O)C[C@@H](/C=C/CCS)OC(=O)[C@H](C)NC1=O [Compound 142]
130

So what's the measured GI50 for this one? C/C=C1\NC(=O)c2cccc(n2)CNC(=O)C[C@@H](/C=C/CCS)OC(=O)[C@H](Cc2ccc(O)cc2)NC1=O [Compound 127]
50

So what's the measured GI50 for this one? C/C=C1\NC(=O)c2ccc(F)c(n2)CNC(=O)C[C@@H](/C=C/CCSC(=O)CCCCCCC)OC(=O)[C@H](C(C)C)NC1=O [Example 32]
60

So what's the measured GI50 for this one? C/C=C1\NC(=O)c2nc(ccc2F)CNC(=O)C[C@@H](/C=C/CCS)OC(=O)[C@H](Cc2ccccc2)NC1=O [Compound 115]
60

So what's the measured GI50 for this one? C/C=C1\NC(=O)c2cc(F)cc(n2)CNC(=O)C[C@@H](/C=C/CCS)OC(=O)[C@H](C)NC1=O [Compound 113]
70

---

- Test system: H1975 (non-small cell lung adenocarcinoma)
- ASSAY_COMMENT: MTT cancer cell growth inhibition
- Type: cell-based
- ASSAY_CONDITIONS: Homo sapiens, NCI-H1975, 72 h, MTT, 72 hours incubation, H1975 cells; read-out: GI50 H1975
# note: exactly 50 nM is not below, so it is no (0); use yes (1) for GI50 strictly under it

Here's what some known entries look like.
C/C=C1\NC(=O)c2cc(SC)cc(n2)CNC(=O)C[C@@H](/C=C/CCSC(C)=O)OC(=O)[C@H](CC)NC1=O [Compound 178]: no (0)
C/C=C1\NC(=O)c2nc(ccc2SC)CNC(=O)C[C@@H](/C=C/CCSC(C)=O)OC(=O)[C@@H](C)NC1=O [Compound 220]: no (0)
C/C=C1\NC(=O)c2cccc(n2)CNC(=O)C[C@@H](/C=C/CCSC(=O)CCCCCC)OC(=O)[C@H](C(C)C)NC1=O [Compound 2]: yes (1)
C/C=C1\NC(=O)c2nc(ccc2F)CNC(=O)C[C@@H](/C=C/CCS)OC(=O)[C@H](Cc2ccccc2)NC1=O [Compound 115]: yes (1)

Now for a further compound.
Given CC(=O)SCC/C=C/[C@@H]1CC(=O)NCc2cc(F)cc(n2)C(=O)NC(=C(C)C)C(=O)N[C@@H](C(C)C)C(=O)O1 [Compound 88] , is recorded GI50 strictly lower than 50 nM?
no (0)

---

- Test system: MCF-7 (human breast cancer cells)
- ASSAY_COMMENT: MTT cancer cell growth inhibition
- Assay type: cell-based
- ASSAY_CONDITIONS: Homo sapiens, MCF7, 72 h, 72 hours incubation, read-out: GI50 MCF
Attribute: GI50
// units = nM; emit number, no label

Solved entries (count: 2):
C/C=C1\NC(=O)c2ccc(F)c(n2)CNC(=O)C[C@@H](/C=C/CCSC(=O)CCCCC)OC(=O)[C@H](C(C)C)NC1=O: 60
C/C=C1\NC(=O)c2nccc(n2)CNC(=O)C[C@@H](/C=C/CCSC(C)=O)OC(=O)[C@H](C)NC1=O: 50

Give the reported GI50 for C/C=C1\NC(=O)c2ccc(F)c(n2)CNC(=O)C[C@@H](/C=C/CCS)OC(=O)[C@H](CCCCN)NC1=O (system: MCF-7 (human breast cancer cells)).
60

Give the reported GI50 for C/C=C1\NC(=O)c2nc(ccc2F)CNC(=O)C[C@@H](/C=C/CCSC(C)=O)OC(=O)[C@H](Cc2ccc(O)cc2)NC1=O (system: MCF-7 (human breast cancer cells)).
30

Give the reported GI50 for C/C=C1\NC(=O)c2ccc(F)c(n2)CCNC(=O)C[C@@H](/C=C/CCSC(C)=O)OC(=O)[C@H](C(C)C)NC1=O (system: MCF-7 (human breast cancer cells)).
20

Give the reported GI50 for C/C=C1\NC(=O)c2cc(F)cc(n2)CNC(=O)C[C@@H](/C=C/CCS)OC(=O)[C@H](Cc2cccc3ccccc23)NC1=O (system: MCF-7 (human breast cancer cells)).
60

---

Attribute: GI50
- Tested on: DU145 (human prostate cancer cells)
- ASSAY_COMMENT: MTT cancer cell growth inhibition
- Type: cell-based
- ASSAY_CONDITIONS: Homo sapiens, DU-145, 72 h, MTT, 72 hours incubation; read-out: GI50 Du1
- From the text: MTT assay principle is yellow MTT can penetrate membrane into the cell, succinic dehydrogenase of the mitochondria in living cells can make exogenous MTT reduction of insoluble in water of blue-violet acicular formazan for crystallization and deposition in the cell, crystallization can be dissolved dimethyl sulfoxide (DMSO) solution, detected its absorbance at 490 nm/570 nm wavelength by enzyme-linked immunosorbent assay, which can reflect the number of cells. […] e) 570 nm readings. […]
// units = nM; emit number, no label

Solved entries (count: 3):
C=C1NC(=O)c2cc(F)cc(n2)CNC(=O)C[C@@H](/C=C/CCS)OC(=O)[C@H](C)NC1=O: 70
C/C=C1\NC(=O)c2nccc(n2)CNC(=O)C[C@@H](/C=C/CCSC(C)=O)OC(=O)[C@H](C)NC1=O: 20
C/C=C1\NC(=O)c2nc(ccc2F)CNC(=O)C[C@@H](/C=C/CCSC(C)=O)OC(=O)[C@H](CCCCNC(=O)OCC2c3ccccc3-c3ccccc32)NC1=O: 20

So what's the measured GI50 for this one? C/C=C1\NC(=O)c2nc(ccc2F)CNC(=O)C[C@@H](/C=C/CCS)OC(=O)[C@H](Cc2cccc3ccccc23)NC1=O
20

So what's the measured GI50 for this one? C/C=C1\NC(=O)c2cc(F)cc(n2)CNC(=O)C[C@@H](/C=C/CCSC(=O)CCCC)OC(=O)[C@H](C(C)C)NC1=O
40

So what's the measured GI50 for this one? C/C=C1\NC(=O)c2cccc(n2)NC(=O)C[C@@H](/C=C/CCSC(C)=O)OC(=O)[C@H](C(C)C)NC1=O
40

---

Attribute: pIC50
- ASSAYED_TARGET: HDAC1 (Homo sapiens, UniProt Q13547)
- Sequence (Q13547 whole entry, species assumed): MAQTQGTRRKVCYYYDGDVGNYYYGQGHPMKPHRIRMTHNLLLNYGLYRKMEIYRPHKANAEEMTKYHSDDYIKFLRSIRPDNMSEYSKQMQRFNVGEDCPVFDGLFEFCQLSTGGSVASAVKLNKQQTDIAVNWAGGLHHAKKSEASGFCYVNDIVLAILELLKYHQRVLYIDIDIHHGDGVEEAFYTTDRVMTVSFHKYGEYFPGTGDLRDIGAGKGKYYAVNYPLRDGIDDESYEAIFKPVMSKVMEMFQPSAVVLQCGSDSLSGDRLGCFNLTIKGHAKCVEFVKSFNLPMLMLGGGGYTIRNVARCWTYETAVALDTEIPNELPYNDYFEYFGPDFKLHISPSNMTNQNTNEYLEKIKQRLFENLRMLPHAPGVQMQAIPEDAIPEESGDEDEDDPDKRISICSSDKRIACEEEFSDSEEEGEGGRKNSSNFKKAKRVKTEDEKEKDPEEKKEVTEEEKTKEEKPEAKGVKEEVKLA
- ASSAY_COMMENT: HDAC biochemical activity measurement (fluorescent substrate deacetylation);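 also: fluorogenic acetyl-lysine substrate (20 µM) deacetylated by HDAC1, then developer releases fluorophore read at 360 nm excitation and 460 nm emission, inhibitor incubated 30 min at 37 °C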
- ASSAY_CONDITIONS: HDAC1; 37° C. 30 minutes; read-out: IC50 HDAC1
Scale: negative log10 of molar concentration, which is what pIC50 denotes.

Solved entries (count: 6):
C/C=C1\NC(=O)c2cccc(n2)CNC(=O)C[C@@H](/C=C/CCSC(=O)CCCCCCC)OC(=O)[C@H](CC(C)C)NC1=O: 7.55
C/C=C1\NC(=O)c2cc(SC)cc(n2)CNC(=O)C[C@@H](/C=C/CCSC(C)=O)OC(=O)[C@H](CC)NC1=O: 7.04
C/C=C1\NC(=O)c2cc(SCCC)cc(n2)CNC(=O)C[C@@H](/C=C/CCSC(=O)CCCCCCC)OC(=O)[C@H](CC)NC1=O: 7.39
C/C=C1\NC(=O)c2ccc(F)c(n2)CNC(=O)C[C@@H](/C=C/CCSC(C)=O)OC(=O)[C@H](CCCCNC(=O)OCC2c3ccccc3-c3ccccc32)NC1=O: 7.03
C=C1NC(=O)c2cccc(n2)CNC(=O)C[C@@H](/C=C/CCSC(C)=O)OC(=O)[C@H](C(C)C)NC1=O: 6.75
C/C=C1\NC(=O)c2ccc(F)c(n2)CNC(=O)C[C@@H](/C=C/CCSC(=O)CCCCCCC)OC(=O)[C@H](Cc2ccccc2)NC1=O: 7.29

So what's the measured pIC50 for this one? C/C=C1\NC(=O)c2nc(ccc2SC)CNC(=O)C[C@@H](/C=C/CCS)OC(=O)[C@H](C)NC1=O
7.18

So what's the measured pIC50 for this one? CC(=O)SCC/C=C/[C@@H]1CC(=O)NCc2cc(F)cc(n2)C(=O)NC(=C(C)C)C(=O)N[C@@H](C(C)C)C(=O)O1
7.51

So what's the measured pIC50 for this one? C/C=C1\NC(=O)c2nc(ccc2F)CNC(=O)C[C@@H](/C=C/CCSC(=O)CCCCCCC)OC(=O)[C@H](C(C)C)NC1=O
7.92

So what's the measured pIC50 for this one? C/C=C1\NC(=O)c2nc(ccc2F)CNC(=O)C[C@@H](/C=C/CCSC(=O)CCCCC)OC(=O)[C@H](C(C)C)NC1=O
7.96

So what's the measured pIC50 for this one? CCCCCCCC(=O)SCC/C=C/[C@@H]1CC(=O)NCc2cccc(n2)C(=O)NC(CC)C(=O)N[C@@H](C(C)C)C(=O)O1 (stereo partly shown)
7.18

So what's the measured pIC50 for this one? C/C=C1\NC(=O)c2cc(F)cc(n2)CNC(=O)C[C@@H](/C=C/CCSC(=O)CCCC)OC(=O)[C@H](C(C)C)NC1=O
7.37

So what's the measured pIC50 for this one? C/C=C1\NC(=O)c2nc(ccc2F)CNC(=O)C[C@@H](/C=C/CCSC(C)=O)OC(=O)[C@H](C)NC1=O
7.39
